Values compiled from patent US9273058B2.

# System: CK1δ (Homo sapiens)
# Sequence (P48730 whole entry): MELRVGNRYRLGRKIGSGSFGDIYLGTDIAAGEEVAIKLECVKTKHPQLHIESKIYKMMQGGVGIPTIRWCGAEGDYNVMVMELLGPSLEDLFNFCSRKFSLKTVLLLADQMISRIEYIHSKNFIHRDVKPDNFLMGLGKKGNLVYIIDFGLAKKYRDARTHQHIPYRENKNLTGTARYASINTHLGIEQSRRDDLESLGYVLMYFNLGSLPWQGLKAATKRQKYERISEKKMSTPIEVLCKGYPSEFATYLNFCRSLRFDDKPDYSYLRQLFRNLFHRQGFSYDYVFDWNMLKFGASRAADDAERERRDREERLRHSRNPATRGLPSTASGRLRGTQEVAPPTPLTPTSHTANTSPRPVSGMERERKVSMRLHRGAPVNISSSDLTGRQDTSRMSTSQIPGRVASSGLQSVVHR
# Test: CK1δ kinase assay (Caliper LabChip electrophoretic separation of fluoresceinated peptide substrate and product)
# Assay type: biochemical
# Study Conditions: 200 pM CK1δ, 50 μM ATP, 1.5 μM peptide, 22 hours at room temperature; read-out: CK1δ IC50 range
pIC50: −log10 of the molar value.

Compound | pIC50
COc1ccc([C@H]2C[C@@H](NC(=O)N3CCn4nc(-c5ccc(Cl)c(Cl)c5)c(C(N)=O)c4C3)C2)cc1 | 8.00 to 11.00
CC(C)(C)NC(=O)N1CCn2nc(-c3cccc(Cl)c3)c(C(N)=O)c2C1 | 8.00 to 11.00
CC1(C)C2CCC1(NC(=O)N1CCn3nc(-c4ccc(F)c(Cl)c4)c(C(N)=O)c3C1)CC2F (centres unmarked) | 8.00 to 11.00
NC(=O)c1c(-c2cccc(F)c2)nn2c1CN(C(=O)NC(CF)(CF)CF)CC2 | 8.00 to 11.00
NC(=O)c1c(-c2ccc(F)c(Cl)c2)nn2c1CN(C(=O)N[C@H]1C[C@@H](OC(F)(F)F)C1)CC2 | 8.00 to 11.00
CC(C)(C)NC(=O)N1Cc2c(C(N)=O)c(-c3ccc(F)c(Cl)c3)nn2C(C(F)(F)F)C1 (single isomer, unassigned) [Compound A128] | 8.00 to 11.00
CC(C)(C)NC(=O)N1CCn2nc(-c3ccc(F)c(C(F)(F)F)c3)c(C(N)=O)c2C1 | 7.00 to 8.00
NC(=O)c1c(-c2ccc(F)c(Cl)c2)nn2c1CN(C(=O)NC13CCC(CO)(CC1)CC3)CC2 | 8.00 to 11.00
NC(=O)c1c(-c2ccc(F)c(Cl)c2)nn2c1CN(C(=O)NC1CC(F)(F)C1)CC2C(F)(F)F (single isomer, unassigned) [Compound A125] | 7.00 to 8.00
NC(=O)c1c(-c2cccc(F)c2)nn2c1CN(C(=O)NC1CCC(F)(F)CC1)CC2 | 7.00 to 8.00
CC(C)(C)NC(=O)N1Cc2c(C(N)=O)c(-c3ccc(F)c(Cl)c3)nn2C(CN2CCOCC2)C1 (centres unmarked) [Compound A16] | 7.00 to 8.00
Cc1cc(C)cc(-c2nn3c(c2C(N)=O)CN(C(=O)NC(C)(C)C)CC3)c1 | 7.00 to 8.00
CC1CC(NC(=O)N2CCn3nc(-c4cccc(Cl)c4)c(C(N)=O)c3C2)C1 (single isomer, unassigned) [Compound 250] | 8.00 to 11.00
N#Cc1ccc(O[C@H]2C[C@H](NC(=O)N3CCn4nc(-c5ccc(F)c(Cl)c5)c(C(N)=O)c4C3)C2)cc1 | 8.00 to 11.00

---

# System: CK1ε (Homo sapiens)
# Test: CK1ε kinase assay (Caliper LabChip electrophoretic separation of fluoresceinated peptide substrate and product)
# Format: biochemical
# Study Conditions: 200 pM CK1ε, 50 μM ATP, 1.5 μM peptide, 22 hours at room temperature; read-out: CK1ε IC50 range
pIC50: −log10 of the molar value.

Compound | pIC50
NC(=O)c1c(-c2ccc(Cl)c(Cl)c2)nn2c1CN(C(=O)NC1CC3(C1)CC(F)(F)C3)CC2 | 8.00 to 11.00
CC(C)(C)NC(=O)N1Cc2c(C(N)=O)c(-c3ccc(Cl)c(Cl)c3)nn2C(C(C)(C)O)C1 (stereo not shown) [Compound A37] | 8.00 to 11.00
CC(C)(C)NC(=O)N1Cc2c(C(N)=O)c(-c3cccc(F)c3)nn2C(CF)C1 (single isomer, unassigned) [Compound A106] | 5.70 to 7.00
CC1(NC(=O)N2Cc3c(C(N)=O)c(-c4ccc(Cl)c(Cl)c4)nn3C(CF)C2)CC(F)(F)C1 (stereo not shown) [Compound A27] | 8.00 to 11.00
NC(=O)c1c(-c2cccc(F)c2)nn2c1CN(C(=O)NC1CC1)CC2 | 7.00 to 8.00
COc1ccc(NC(=O)N2CCn3nc(-c4cccc(F)c4)c(C(N)=O)c3C2)cc1OC | 7.00 to 8.00
NC(=O)c1c(-c2cccc(Cl)c2)nn2c1CN(C(=O)Nc1ccc(OC(F)(F)F)cc1)CC2 | 8.00 to 11.00

---

# System: CK1ε (Homo sapiens, UniProt P49674)
# Sequence (P49674 whole entry): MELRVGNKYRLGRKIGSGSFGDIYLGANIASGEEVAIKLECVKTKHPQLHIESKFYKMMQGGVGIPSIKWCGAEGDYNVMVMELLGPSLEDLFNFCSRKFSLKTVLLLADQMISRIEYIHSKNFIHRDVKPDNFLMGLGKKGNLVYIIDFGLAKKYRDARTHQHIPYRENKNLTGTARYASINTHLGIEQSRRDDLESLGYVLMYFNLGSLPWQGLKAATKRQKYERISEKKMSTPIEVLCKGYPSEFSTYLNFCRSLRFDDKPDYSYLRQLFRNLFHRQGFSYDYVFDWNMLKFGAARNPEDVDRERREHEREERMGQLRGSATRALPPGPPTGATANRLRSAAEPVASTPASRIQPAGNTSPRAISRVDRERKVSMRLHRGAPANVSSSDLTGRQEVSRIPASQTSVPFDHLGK
# Test: CK1ε kinase assay (Caliper LabChip electrophoretic separation of fluoresceinated peptide substrate and product)
# Format: biochemical
# Study Conditions: 200 pM CK1ε, 50 μM ATP, 1.5 μM peptide, 22 hours at room temperature; read-out: CK1ε IC50 range
Entries annotated with measured IC50

Compound | IC50
NC(=O)c1c(-c2cc(F)cc(Cl)c2)nn2c1CN(C(=O)NC1CC(F)(F)C1)CC2 | 0.01 to 10 nM
NC(=O)c1c(-c2cccc(F)c2)nn2c1CN(C(=O)NC1CCN(S(=O)(=O)C3CC3)CC1)CC2 | 10 to 100 nM
NC(=O)c1c(-c2cccc(F)c2)nn2c1CN(C(=O)NCC(F)(F)F)CC2 | 100 to 2000 nM
CC(C)(C)NC(=O)N1CCn2nc(-c3cc(F)ccc3F)c(C(N)=O)c2C1 | 100 to 2000 nM
NC(=O)c1c(-c2cccc(F)c2)nn2c1CN(C(=O)Nc1cccnn1)CC2 | 100 to 2000 nM
NC(=O)c1c(-c2ccc(F)c(Cl)c2)nn2c1CN(C(=O)NC13CCCC(CCC1)C3)CC2 | 0.01 to 10 nM
COc1ccc([C@H]2C[C@@H](NC(=O)N3CCn4nc(-c5cccc(Cl)c5)c(C(N)=O)c4C3)C2)cc1 | 0.01 to 10 nM
NC(=O)c1c(-c2cccc(Cl)c2)nn2c1CN(C(=O)N[C@H]1C[C@@H]3[C@H](C1)C3(F)F)CC2 | 0.01 to 10 nM
COC12CCC(NC(=O)N3CCn4nc(-c5cccc(Cl)c5)c(C(N)=O)c4C3)(CC1)C(F)(F)C2 | 0.01 to 10 nM
NC(=O)c1c(-c2ccc(F)c(Cl)c2)nn2c1CN(C(=O)NC13CCC(F)(CC1)C3)CC2 | 0.01 to 10 nM
COCC(C)(C)NC(=O)N1CCn2nc(-c3cccc(Cl)c3)c(C(N)=O)c2C1 | 0.01 to 10 nM
COCCNC(=O)C(C)(C)NC(=O)N1CCn2nc(-c3ccc(F)c(Cl)c3)c(C(N)=O)c2C1 | 100 to 2000 nM
CC(C)(O)[C@@H]1CN(C(=O)NC2CC(F)(F)C2)Cc2c(C(N)=O)c(-c3ccc(F)c(Cl)c3)nn21 | 10 to 100 nM
CC(C)NC(=O)N1CCn2nc(-c3cccc(F)c3)c(C(N)=O)c2C1 | 10 to 100 nM
N#CC1(NC(=O)N2CCn3nc(-c4ccc(F)c(Cl)c4)c(C(N)=O)c3C2)CCOC1 (stereo not shown) | 0.01 to 10 nM
CC1(NC(=O)N2Cc3c(C(N)=O)c(-c4ccc(Cl)c(Cl)c4)nn3C(CF)C2)CC(F)(F)C1 (stereo not shown) [Compound A28] | 0.01 to 10 nM

---

// IC50 lookup, one value per entry
# System: CK1ε (Homo sapiens)
# Test: CK1ε kinase assay (Caliper LabChip electrophoretic separation of fluoresceinated peptide substrate and product)
# Type: biochemical
# Study Conditions: 200 pM CK1ε, 50 μM ATP, 1.5 μM peptide, 22 hours at room temperature; read-out: CK1ε IC50 range

Structure Smiles String | IC50
CC(C)(NC(=O)N1CCn2nc(-c3cccc(Cl)c3)c(C(N)=O)c2C1)C1CCC(F)(F)CC1 | 0.01 to 10 nM
NC(=O)c1c(-c2cccc(F)c2)nn2c1CN(C(=O)NC1CCCCC1)CC2 | 0.01 to 10 nM
N#Cc1ccc(C23CCC(NC(=O)N4CCn5nc(-c6ccc(Cl)c(Cl)c6)c(C(N)=O)c5C4)(CC2)CC3)cc1 | 0.01 to 10 nM
COc1ccc([C@H]2C[C@@H](NC(=O)N3CCn4nc(-c5ccc(Cl)c(Cl)c5)c(C(N)=O)c4C3)C2)cc1 | 0.01 to 10 nM
NC(=O)c1c(-c2ccc(F)c(Cl)c2)nn2c1CN(C(=O)NC13CCC(CF)(CC1)CC3)CC2 | 0.01 to 10 nM
CC(C)(C)NC(=O)N1CCn2nc(-c3cccc4ncccc34)c(C(N)=O)c2C1 | 100 to 2000 nM
CC1(C)CC(NC(=O)N2CCn3nc(-c4cccc(F)c4)c(C(N)=O)c3C2)CC(C)(C)N1 | 100 to 2000 nM

---

# System: CK1ε (Homo sapiens, UniProt P49674)
# Test: CK1ε kinase assay (Caliper LabChip electrophoretic separation of fluoresceinated peptide substrate and product)
# Type: biochemical
# Study Conditions: 200 pM CK1ε, 50 μM ATP, 1.5 μM peptide, 22 hours at room temperature; read-out: CK1ε IC50 range
pIC50: −log10 of the molar value.
Reported Metric: pIC50

Molecule | Reported Metric | Result
CC(C)(C)NC(=O)N1CCn2nc(-c3cccc(Cl)c3)c(C(N)=O)c2C1 | pIC50 | 8.00 to 11.00
CC(C)(C)NC(=O)N1CCn2nc(-c3ccc(F)nc3F)c(C(N)=O)c2C1 | pIC50 | 5.70 to 7.00
COC12CCC(NC(=O)N3CCn4nc(-c5ccc(F)c(Cl)c5)c(C(N)=O)c4C3)(CC1)C(F)(F)C2 | pIC50 | 8.00 to 11.00
CO[C@H]1C[C@H](NC(=O)N2CCn3nc(-c4cccc(Cl)c4)c(C(N)=O)c3C2)C1 | pIC50 | 8.00 to 11.00
CC(C)(C)NC(=O)N1Cc2c(C(N)=O)c(-c3ccc(Cl)c(Cl)c3)nn2C(C(F)F)C1 (stereo not shown) [Compound A31] | pIC50 | 7.00 to 8.00
CC12CC3(C)CC(C)(C1)CC(NC(=O)N1CCn4nc(-c5cccc(Cl)c5)c(C(N)=O)c4C1)(C2)C3 | pIC50 | 8.00 to 11.00
NC(=O)c1c(-c2cccc(Cl)c2)nn2c1CN(C(=O)NC1CC3(C1)CC3(F)F)CC2 (single isomer, unassigned) [Compound 323] | pIC50 | 8.00 to 11.00
